Origin of measurements: ChEMBL document CHEMBL4483862

tested on: Plasmodium berghei; assay: Luciferase/luciferin-expressing antifolate-resistant parasites were used to infect a culture of HepG2 cells that were pre-incubated with compounds. Infected hepatocytes emit light due to the luciferase reaction. Assay results are presented as the percent inhibition of light emission compared to control. […]; assay type: functional; settings: sporozoite, PBLUC_HILL_SLOPE 1.9, PBLUC_R_SQUARED 0.121, read-out: LUCIFERASE INFECTION ASSAY - IC50
quantity: IC50 (µM)
Write down the numeric answer in µM and omit the unit.

IN: Name the recorded IC50 for `CCCc1nc2oc3cc(OC)ccc3c(=O)c2c(=O)n1Cc1ccco1` .
OUT: 5.6

---

system: Plasmodium berghei; assay: Luciferase/luciferin-expressing antifolate-resistant parasites were used to infect a culture of HepG2 cells that were pre-incubated with compounds. Infected hepatocytes emit light due to the luciferase reaction. Assay results are presented as the percent inhibition of light emission compared to control. […]; format: functional; details: sporozoite, read-out: LUCIFERASE INFECTION ASSAY - IC50
quantity: IC50

# count of solved cases: 5
[[record]]
compound = "O=C(Nc1nc(-c2ccc3c(c2)CCCC3)cs1)c1cnccn1"
test_value = "> 10 µM"

[[record]]
compound = "Cc1ccc(C(=O)Nc2cccc(CNC(C)c3ccc(F)cc3F)c2)cc1 (stereo not given)"
test_value = "> 10 µM"

[[record]]
compound = "Cc1ccc(Cn2ccs/c2=N/C(=O)COC(=O)CCN2C(=O)C3CC=CCC3C2=O)cc1 (stereo not given)"
test_value = "> 10 µM"

[[record]]
compound = "Cc1cccc(-c2nc3c(c(SCCN4CCCC4)n2)COC(C)(C)C3)c1"
test_value = "> 8.6 µM"

[[record]]
compound = "COc1ccccc1NS(=O)(=O)c1ccc2nc(-c3ccncc3)[nH]c2c1"
test_value = "> 10 µM"


IN: Which IC50 is reported with Plasmodium berghei for this entry: `CC(C)c1ccc(-c2cnc3sc(NCCCO)nn23)cc1` ?
OUT: > 10.4 µM

IN: Notebook: pull reported IC50 for Plasmodium berghei, entry CC(=O)c1cc2c(cc1NC(=O)c1cccc(S(=O)(=O)N3c4ccccc4CC3C)c1)OCO2 (stereo not given)
OUT: > 10 µM
